The values you see were collected from the supplement of paper PMC9135407.

# Test system: primary human hepatic stellate cells (donor 1)
# experimental_details: scaled lipid accumulation score (0 = DMSO-like, 1 = nortriptyline-like); higher = stronger HSC inactivation (lipid re-accumulation), active = hit call of the paper
# experimental_context: library stock concentration: 1 mM; 48 h
Out of some 5,800 compounds screened, about 620 (11%) showed activity. The full list was thinned out, with actives kept by preference.
measure_name: scaled lipid accumulation score

// known answers, use as guide
* CCCCCC(O)C=CC1CC2CC(C1CC=CCCCC(=O)O)C2(C)C [15(R)-Pinane Thromboxane A2] | ≤ 0 (inactive)
* CCCCC[C@H](O)/C=C/[C@H]1[C@H](O)CC(=O)[C@@H]1C/C=C/CCCC(=O)O [5-trans Prostaglandin E2] | ≤ 0 (inactive)
* CCCCCC(O)C=CC1C(O)CC(O)C1CC=CCCCC(=O)OC (stereo not drawn) | ≤ 0 (inactive)
* CCCCC/C=C\C=C1\C(=O)CC[C@@H]1C/C=C\CCCC(=O)O | ≤ 0 (inactive)

Provide reported scaled lipid accumulation score for each item, in the same order as listed.
1. CC/C=C\C/C=C\C/C=C\C/C=C\C/C=C\CCCC(=O)O[C@H](COCCCCCCCCCCCCCCCC)COP(=O)([O-])OCC[N+](C)(C)C
2. CCCCCCCCCCCCCCCC(O)C(N)CO (racemic) [DL-Dihydrosphingosine]
3. CCCCCCCC/C=C\CCCCCCCCCCCC(=O)O [13(Z)-Docosenoic Acid]
4. CCCCC[C@H](O)/C=C/[C@@H]1[C@@H](C/C=C\CCCC(=O)N(CC)CC)[C@@H](O)C[C@H]1O [Prostaglandin F2.alpha. diethyl amide]

Reply:
1: ≤ 0 (inactive); 2: ≤ -0.021 (inactive); 3: 0.016 (inactive); 4: ≤ 0 (inactive)
